Values compiled from patent US12509431B2.

target: Porcine Ventricle myofibrils (left ventricle of Yucatan minipigs) (Sus scrofa, UniProt P79293); construct: Myofibrils from porcine cardiac muscle was isolated from the left ventricle of Yucatan minipigs; tissue Exemplar Genetics; host or cells: left ventricle of Yucatan minipigs; experiment: Myofibril ATPase assay (PK/LDH NADH-coupled), ventricle myofibrils; assay type: biochemical; details: Table 8
Sequence (P79293 whole entry): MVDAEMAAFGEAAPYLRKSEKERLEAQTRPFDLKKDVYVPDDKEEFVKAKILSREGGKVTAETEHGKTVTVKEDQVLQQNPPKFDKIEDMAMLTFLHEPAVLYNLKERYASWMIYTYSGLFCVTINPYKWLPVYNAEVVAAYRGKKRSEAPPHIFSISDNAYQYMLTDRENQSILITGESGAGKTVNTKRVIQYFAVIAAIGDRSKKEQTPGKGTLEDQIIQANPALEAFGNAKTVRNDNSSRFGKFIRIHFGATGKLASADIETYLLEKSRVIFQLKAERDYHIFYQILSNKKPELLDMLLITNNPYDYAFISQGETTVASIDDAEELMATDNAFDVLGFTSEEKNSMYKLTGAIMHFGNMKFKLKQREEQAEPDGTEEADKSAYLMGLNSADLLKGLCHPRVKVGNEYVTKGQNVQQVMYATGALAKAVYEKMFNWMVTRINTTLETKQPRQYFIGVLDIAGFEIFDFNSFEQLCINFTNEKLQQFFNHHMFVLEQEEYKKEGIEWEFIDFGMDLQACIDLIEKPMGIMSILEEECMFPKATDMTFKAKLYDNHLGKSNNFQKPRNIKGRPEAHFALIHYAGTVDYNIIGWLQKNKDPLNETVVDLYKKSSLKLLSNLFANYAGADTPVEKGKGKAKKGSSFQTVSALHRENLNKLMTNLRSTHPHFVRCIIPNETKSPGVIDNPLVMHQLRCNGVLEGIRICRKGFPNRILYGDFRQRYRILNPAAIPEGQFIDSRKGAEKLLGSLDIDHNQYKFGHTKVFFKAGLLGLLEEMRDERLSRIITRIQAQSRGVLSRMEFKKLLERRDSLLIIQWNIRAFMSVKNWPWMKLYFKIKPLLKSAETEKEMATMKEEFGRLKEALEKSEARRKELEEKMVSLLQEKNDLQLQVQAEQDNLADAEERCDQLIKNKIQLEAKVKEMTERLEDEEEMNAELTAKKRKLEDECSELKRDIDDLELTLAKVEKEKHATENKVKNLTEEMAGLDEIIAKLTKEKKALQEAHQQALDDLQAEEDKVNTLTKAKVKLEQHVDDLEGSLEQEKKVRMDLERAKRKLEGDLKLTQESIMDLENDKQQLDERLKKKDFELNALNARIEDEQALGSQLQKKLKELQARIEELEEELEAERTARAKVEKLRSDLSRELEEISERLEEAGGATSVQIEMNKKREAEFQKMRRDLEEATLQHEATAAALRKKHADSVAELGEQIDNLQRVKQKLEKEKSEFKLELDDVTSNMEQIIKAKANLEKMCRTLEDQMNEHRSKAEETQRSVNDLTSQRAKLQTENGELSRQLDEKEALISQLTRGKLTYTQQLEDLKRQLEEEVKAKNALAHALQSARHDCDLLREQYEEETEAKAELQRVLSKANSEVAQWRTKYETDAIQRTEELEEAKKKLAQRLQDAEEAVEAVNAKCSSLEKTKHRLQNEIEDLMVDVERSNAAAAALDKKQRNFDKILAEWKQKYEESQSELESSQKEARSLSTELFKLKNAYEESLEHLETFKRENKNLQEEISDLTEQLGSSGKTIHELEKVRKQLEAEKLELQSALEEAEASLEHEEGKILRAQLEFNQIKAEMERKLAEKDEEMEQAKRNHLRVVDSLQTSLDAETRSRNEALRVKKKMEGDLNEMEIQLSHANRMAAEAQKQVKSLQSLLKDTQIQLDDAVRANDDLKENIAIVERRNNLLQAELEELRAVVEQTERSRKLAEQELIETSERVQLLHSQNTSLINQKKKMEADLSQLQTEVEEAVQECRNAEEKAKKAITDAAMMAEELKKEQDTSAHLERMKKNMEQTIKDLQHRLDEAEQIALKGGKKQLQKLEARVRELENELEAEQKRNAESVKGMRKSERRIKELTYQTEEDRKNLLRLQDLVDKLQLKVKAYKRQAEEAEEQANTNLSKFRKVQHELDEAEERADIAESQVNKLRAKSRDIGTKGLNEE
Readings of Porcine Ventricle IC25 for the listed molecules
property_name: Porcine Ventricle IC25

molecule	property_name	result
C[C@H](NC(=O)CN1Cc2c(ccc(F)c2F)NC1=O)c1cc2ccccc2cn1	Porcine Ventricle IC25	100.00 µM
C[C@@H](NC(=O)CN1Cc2c(ccc(F)c2F)NC1=O)c1cc2cccnc2cn1	Porcine Ventricle IC25	100.00 µM
CC(NC(=O)CN1Cc2cc(C#N)ccc2NC1=O)c1ncc(C#N)cc1F (stereo not shown)	Porcine Ventricle IC25	100 µM
C[C@H](NC(=O)CN1Cc2cc(F)c(F)cc2NC1=O)c1ncc(C#N)cc1F	Porcine Ventricle IC25	0.33 µM

* * *

tested on: Porcine Atria myofibrils; assay: Myofibril ATPase assay (PK/LDH NADH-coupled), atria myofibrils; type: biochemical; conditions: Table 7
Everything with Porcine Atria IC25 lower than 0.6 µM is N; everything else, including exactly 0.6 µM, is Y.

compound_smiles	answer_label
C[C@H](NC(=O)CN1C(=O)Nc2cccnc2[C@H]1C)c1ccc(F)cc1F	Y
C[C@H](NC(=O)[C@H](C)N1Cc2ncccc2NC1=O)c1ccc(F)cc1F	Y
CC(C)C[C@@H](C(=O)N[C@@H](C)c1ccc(F)cc1F)N1Cc2nc(F)ccc2NC1=O	Y
N#Cc1ccc([C@H](CO)NC(=O)CN2C(=O)Nc3cccnc3C23CC3)c(F)c1	N
C[C@H](NC(=O)[C@@H](C)N1Cc2nc(F)ccc2NC1=O)c1ccc(F)cc1F	N
Cc1ncc2c(n1)CN(CC(=O)N[C@@H](C)c1ccc(F)cc1F)C(=O)N2	Y

* * *

test system: Rabbit Skeletal myofibrils (rabbit psoas muscle); test: Myofibril ATPase assay (PK/LDH NADH-coupled), skeletal myofibrils; type: biochemical; settings: Table 7
Readings of Rabbit Psoas IC25 for the listed compounds
property_name: Rabbit Psoas IC25 (nM)

compound	property_name	number
COc1nccc2c1CN(CC(=O)N[C@@H](C)c1ccc(F)cc1F)C(=O)N2	Rabbit Psoas IC25	42.3
Cc1nccc2c1CN(CC(=O)N[C@@H](C)c1ccc(F)cc1F)C(=O)N2	Rabbit Psoas IC25	559
N#Cc1cc(F)c2c(c1)OC[C@@H]2NC(=O)CN1Cc2c(ccnc2C(F)(F)F)NC1=O	Rabbit Psoas IC25	2918
C[C@H](NC(=O)CN1Cc2c(ccnc2C(F)(F)F)NC1=O)c1ncc(F)cc1F	Rabbit Psoas IC25	4790
C[C@H](NC(=O)CN1Cc2c(F)cncc2NC1=O)c1ccc(F)cc1F	Rabbit Psoas IC25	448.3
COc1ccc2c(n1)C1(CC1)N(CC(=O)N[C@@H](C)c1ncc(F)cc1F)C(=O)N2	Rabbit Psoas IC25	44.2
C[C@H](NC(=O)CN1Cc2cnccc2NC1=O)c1ccc(C#N)cc1F	Rabbit Psoas IC25	6632
CC(C)Oc1nccc2c1CN(CC(=O)N[C@@H](C)c1ccc(F)cc1F)C(=O)N2	Rabbit Psoas IC25	423.9
O=C(CN1C(=O)Nc2cccnc2C12CC2)N[C@H](CO)c1ccc(F)cc1F [Compound N43]	Rabbit Psoas IC25	100000
O=C(CN1Cc2c(ccnc2Cl)NC1=O)N[C@@H](c1ccc(F)cc1F)C(F)(F)F	Rabbit Psoas IC25	9480
C[C@H](NC(=O)CN1Cc2c(ccnc2OC2CC2)NC1=O)c1ccc(F)cc1F	Rabbit Psoas IC25	191.4
CC(NC(=O)CN1Cc2c(ccnc2C2CC2(F)F)NC1=O)c1ncc(F)cc1F (stereo not shown)	Rabbit Psoas IC25	100000
C[C@H](NC(=O)CN1C(=O)Nc2ccc(C#N)nc2C12CC2)c1ncc(F)cc1F	Rabbit Psoas IC25	197
C[C@H](NC(=O)CN1Cc2c(ccnc2C(F)(F)F)NC1=O)c1ccc(F)cc1F	Rabbit Psoas IC25	75.62
C[C@H](NC(=O)[C@@H](C)N1Cc2nc(F)ccc2NC1=O)c1ccc(F)cc1	Rabbit Psoas IC25	100000
C[C@@H](NC(=O)CN1C(=O)Nc2cccnc2C12CC2)c1ncc(F)cc1F	Rabbit Psoas IC25	294.2

* * *

target: Porcine Ventricle myofibrils (left ventricle of Yucatan minipigs) (Sus scrofa); construct: Myofibrils from porcine cardiac muscle was isolated from the left ventricle of Yucatan minipigs; tissue Exemplar Genetics; host or cells: left ventricle of Yucatan minipigs; test: Myofibril ATPase assay (PK/LDH NADH-coupled), ventricle myofibrils; assay type: biochemical; settings: Table 8

compound_smiles	Porcine Ventricle IC25 [µM]
C[C@H](NC(=O)CN1C(=O)Nc2ccc(F)c(F)c2C12CC2)c1cnc(C#N)cn1	0.09
Cc1nc(C#N)ncc1[C@H](C)NC(=O)CN1C(=O)Nc2ccc(F)cc2C12CC2	100.00
CNC(=O)N1CC2(C1)c1cc(F)ccc1NC(=O)N2CC(=O)N[C@H](C)c1ncc(C#N)cc1F	100.00
C[C@H](NC(=O)CN1Cc2cc(F)cc(F)c2NC1=O)c1ccc(C#N)cc1F	0.6824
C[C@H](NC(=O)CN1Cc2cc(F)ccc2NC1=O)c1ncc(C#N)cc1F	0.5693
C[C@@H](NC(=O)CN1Cc2cc(F)ccc2NC1=O)c1ncccn1	100
O=C(CN1Cc2c(ccc(F)c2F)NC1=O)N[C@H]1CS(=O)(=O)c2cc(F)cc(F)c21	100
CC(C)c1cc(F)cnc1[C@H](C)NC(=O)CN1Cc2c(ccc(F)c2F)NC1=O	100
C[C@@H](NC(=O)CN1Cc2c(F)cc(C#N)cc2NC1=O)c1ccc(C#N)cc1F	8.204

* * *

biological target: Porcine Ventricle myofibrils (left ventricle of Yucatan minipigs) (Sus scrofa, UniProt P79293); construct: Myofibrils from porcine cardiac muscle was isolated from the left ventricle of Yucatan minipigs; tissue Exemplar Genetics; host or cells: left ventricle of Yucatan minipigs; experiment: Myofibril ATPase assay (PK/LDH NADH-coupled), ventricle myofibrils; format: biochemical; details: Table 8
Readings of Porcine Ventricle IC25 for the listed molecules

molecule	Porcine Ventricle IC25 [µM]
C[C@H](NC(=O)CN1Cc2c(ccc(F)c2F)NC1=O)c1ccc2ncccc2n1	100.00
C[C@H](NC(=O)CN1Cc2cc(F)ccc2NC1=O)c1ncc(F)cc1F	1.835
C[C@@H](NC(=O)CN1Cc2cc3c(cc2NC1=O)OCCO3)c1ncc(C#N)cc1F	23.74
CC(C)C[C@@H](C(=O)N[C@@H](C)c1ncc(F)cc1F)N1Cc2c(ccc(F)c2F)NC1=O	42.56
COc1cccnc1[C@@H](C)NC(=O)CN1Cc2c(ccc(F)c2F)NC1=O	56.86
C[C@@H](NC(=O)CN1Cc2cc(C#N)ccc2NC1=O)c1ncc(C#N)cc1F	100
C[C@H](NC(=O)CN1Cc2c(C#N)cccc2NC1=O)c1ncc(F)cc1F	2.518
Cc1ccnnc1C(C)NC(=O)CN1Cc2c(ccc(F)c2F)NC1=O (single isomer, unassigned)	2.494

* * *

Readings of Porcine Ventricle IC25 for the listed compounds
Target: Porcine Ventricle myofibrils (left ventricle of Yucatan minipigs) (Sus scrofa)
Construct: Myofibrils from porcine cardiac muscle was isolated from the left ventricle of Yucatan minipigs; tissue Exemplar Genetics; host or cells: left ventricle of Yucatan minipigs
Experiment: Myofibril ATPase assay (PK/LDH NADH-coupled), ventricle myofibrils
Format: biochemical
Conditions: Table 7
Protocol: Myofibril ATPase assays are known in the art to be useful in evaluating small molecules for the treatment of HCM and other cardiac indications. Myosin ATPase activity is assessed by using a coupled reaction system, in which ADP generated by the myosin ATPase function is coupled to the disappearance of NADH through the pyruvate kinase/lactate dehydrogenase (PK-LDH) system. ATPase activity produces ADP, which is used as a substrate for PK to produce pyruvate and regenerate ATP. […]

compound	Porcine Ventricle IC25 (µM)
N#Cc1cnc2c(n1)CC[C@H]2NC(=O)CN1C(=O)Nc2ccc(C#N)nc2C12CC2	100.00
CC(NC(=O)CN1Cc2c(ccnc2C(N)=O)NC1=O)c1ncc(F)cc1F (stereo not drawn)	100
C[C@H](NC(=O)CN1Cc2nc(C#N)ccc2NC1=O)c1ccc(F)cc1F	81.4
